- Tested on: K-562 leukemia
- MEASUREMENT_PROTOCOL: NCI tumour cell line growth inhibition, 48 h
What TGI was measured for each of the following?

In: Short answer please: TGI, K-562 leukemia, entry Nc1ccn(C2CC(O)C(CO)O2)c(=O)n1 (stereo unspecified)
Out: > 5000 µM

In: Now consider Cc1c2cccc-2ccc2c1[nH]c1ccc(Br)cc12 and answer again.
Out: 11.8 µM

In: Now consider CCOC(=O)Cn1c(C)c(/C=N/NC(=O)c2cc3c(ccc4ccccc43)o2)c2ccccc21 and answer again.
Out: > 100 µM

In: Now consider Cn1c(Sc2ccc(-c3cccnc3)n2C)ccc1-c1cccnc1 and answer again.
Out: 13.8 µM

In: Now consider O=C(Nc1nnc(-c2c(Cl)c(Cl)c(Cl)c(Cl)c2-c2nc3cc(C(=O)c4ccccc4)ccc3[nH]2)o1)c1ccccc1 and answer again.
Out: > 100 µM

In: Now consider COc1ccc(CC2c3cc(OC)c(OC)c(OC)c3CC[N+]2(C)C)cc1Oc1ccc(CC2c3cc4c(c(OC)c3CCN2C)OCO4)cc1 (stereo unspecified) and answer again.
Out: > 100 µM

In: Now consider C/C=C/C(C#N)(Cc1ccccc1)OP1(=O)OC(c2ccccc2)C(C)N1C (stereo unspecified) and answer again.
Out: > 100 µM

In: Now consider CC1(O)CC23CC1CCC2(C)C12CCCC(C)(C(=O)O1)C2CC3O (stereo unspecified) and answer again.
Out: > 100 µM

In: Now consider Cc1ccc(NC(=O)CC/C(CC(=O)c2ccc(F)cc2)=N\NC(=O)C(=O)NN)cc1C and answer again.
Out: > 100 µM

In: Now consider CC[C@H](C)C1=C(O)[N@+]2([O-])Oc3ccc(-c4c(O)c(O)c(-c5ccc(OC(C)=O)cc5)c(OC(C)=O)c4OC(C)=O)cc3O[C@]2([C@@H](C)CC)C(=O)N1O and answer again.
Out: 31.5 µM

In: Now consider N#Cc1c(N)c2c(c(-c3ccccc3)c1-c1ccccc1)C(=O)N(NC(=O)c1ccccc1)C2=O and answer again.
Out: > 100 µM

In: Now consider CCOC(=O)c1ccc(Nc2sc(C(=O)c3cccc([N+](=O)[O-])c3)c(N)c2C#N)cc1 and answer again.
Out: 6.53 µM

In: Now consider NNc1ccccc1Cl and answer again.
Out: > 100 µM

In: Now consider COc1cc2c(c(OC)c1OC)-c1ccc(SC)c(=O)cc1[C@@H](NCc1cccc(C#N)c1)CC2 and answer again.
Out: 18.2 µM

In: Now consider N#CSCc1c(Cl)cccc1Cl and answer again.
Out: 16.3 µM

In: Now consider CCN(CC)CCOC(=O)CCN1CC2CCC(CC2)C1 and answer again.
Out: > 100 µM

In: Now consider Cc1cc(C)n(-c2nc3ccccc3c(=O)n2-c2ccccc2)n1 and answer again.
Out: > 100 µM

In: Now consider ICCC(c1ccccc1)(c1ccccc1)c1ccccc1 and answer again.
Out: 4.93 µM

In: Now consider O=C(CC(=O)Nc1ccccc1O)Nc1ccccc1O and answer again.
Out: 25.7 µM

In: Now consider c1ccc2sc(SCN(C3CCCCC3)C3CCCCC3)nc2c1 and answer again.
Out: > 100 µM

In: Now consider O=C(O)C1=NNC(C(=O)O)=NN1 and answer again.
Out: > 100 µM

* * *

What TGI was measured for each of the following?
- Test system: T-47D breast
- MEASUREMENT_PROTOCOL: NCI tumour cell line growth inhibition, 48 h
Express your answer in µM, writing the number without its unit.

In: Item under review: O=c1oc2ccc(Cl)cc2c(=O)n1-c1cc(C(F)(F)F)cc(C(F)(F)F)c1 . Reported TGI?
Out: 2.4

In: Now consider O=C(NCCNCCNCCNC(=O)c1cc(-c2ccccc2)nc2ccccc12)c1cc(-c2ccccc2)nc2ccccc12 and answer again.
Out: 7.66

In: Now consider CC(C)[Si](OC1=C(C(=O)N(C)c2ccccc2Cl)CCCC1)(C(C)C)C(C)C and answer again.
Out: 10.5

In: Now consider N#Cc1cccc(/C=C(/C(=O)c2ccccc2)c2ccccc2)c1 and answer again.
Out: 17.3

In: Now consider Nc1ncnc2c(C3OC(CO)C(O)C3O)[nH]nc12 (stereo not drawn) and answer again.
Out: 1.57

In: Now consider CC1(C)N=C(N)N=C(N)N1c1cccc(CCCCc2ccccc2)c1 and answer again.
Out: 16.2

In: Now consider CC(C)(C)OC(=O)NC(Cc1ccc(OCc2ccccc2)cn1)C(=O)NCc1ccccc1 (stereo not drawn) and answer again.
Out: 56.5

In: Now consider CO[C@@H]1C=C[C@@]23c4cc5c(cc4C(O)N(CC2O)C3C1)OCO5 (stereo partly drawn) and answer again.
Out: 8.01

In: Now consider O=C1CSC(c2ccc(Cl)cc2)N1c1ccc(-c2ccc(-n3c(-c4ccccc4)nc4ccccc4c3=O)cc2)cc1 (stereo not drawn) and answer again.
Out: 52.1

In: Now consider c1ccc(-c2nnc(Nc3ccc4c(c3)OCCO4)o2)c(NCc2ccncc2)c1 and answer again.
Out: 16.9

In: Now consider O=C1c2cscc2C(=O)C1(O)O and answer again.
Out: 37.5

In: Now consider COC(=O)[C@]12CCC(C)(C)C[C@H]1C1=CC[C@@H]3[C@@]4(C)CC[C@H](OC5OC(CO)C(O)C(O)C5OC5OC(CO)C(O)C(O)C5O)C(C)(C)[C@@H]4CC[C@@]3(C)[C@]1(C)CC2 (stereo partly drawn) and answer again.
Out: 36.3

In: Now consider ClC1=NC(Cl)C(Cl)=N/C1=N\c1ncn[nH]1 (stereo not drawn) and answer again.
Out: 3.91

* * *

- Test system: SF-268 CNS
- MEASUREMENT_PROTOCOL: NCI tumour cell line growth inhibition, 48 h; in the data active = GI50 below about 0.43 µM; inactive = the rest
Outcome (select one): T (active), F (inactive)

In: Recorded test call requested for O=C1c2cc3c(cc2[C@@H]2[C@H]1c1ccc([N+](=O)[O-])cc1C(=O)N2CCCCl)OCO3
Out: T

In: Now consider C=CC(=O)N1CCC([C@@H]2CCNc3c(C(N)=O)c(-c4ccc(Oc5ccccc5)cc4)nn32)CC1 and answer again.
Out: F

In: Now consider CCN(C(=O)CCl)C(C)(C)C(SSSC(c1ccc(Cl)cc1)C(C)(C)N(CC)C(=O)CCl)c1ccc(Cl)cc1 (centres undefined) and answer again.
Out: F

In: Now consider COc1c(NC(=O)CC(C)=O)[c]([Hg][O]C(C)=O)c(OC)c(Cl)[c]1[Hg][O]C(C)=O and answer again.
Out: F

* * *

What TGI was measured for each of the following?
- Test system: OVCAR-4 ovarian
- MEASUREMENT_PROTOCOL: NCI tumour cell line growth inhibition, 48 h
Express your answer in µM, writing the number without its unit.

In: Item under review: COc1cc2c(cc1Oc1ccc(OC)c3c1CC1c4c(cc(OC)c(OC)c4-3)CCN1C)CC1c3c(cc(OC)c(OC)c3-2)CCN1C (centres undefined) . Reported TGI?
Out: 10.4

In: Now consider CCOC(=O)CCC(C(=O)OCC)n1nnc2ccc(Nc3c(C)[n+]([O-])c4cc(Cl)ccc4[n+]3[O-])cc21 (centres undefined) and answer again.
Out: 39.1

In: Now consider CC(C)Oc1ccc(CNC2=NCCO2)c2ccccc12 and answer again.
Out: 31.1

In: Now consider COc1c(NC(=O)CC(C)=O)[c]([Hg][O]C(C)=O)c(OC)c(Cl)[c]1[Hg][O]C(C)=O and answer again.
Out: 35.7

* * *

- Test system: HCT-116 colon
- MEASUREMENT_PROTOCOL: NCI tumour cell line growth inhibition, 48 h
What TGI was measured for each of the following?

In: Item under review: Nc1nnc(N)n1NC(=O)C(=O)Nc1ccc([N+](=O)[O-])cc1 . Reported TGI?
Out: > 100 µM

In: Now consider COC(=O)[C@]12CCC(C)(C)C[C@H]1C1=CC[C@@H]3[C@@]4(C)CC[C@H](OC5OC(CO)C(O)C(O)C5OC5OC(CO)C(O)C(O)C5O)C(C)(C)[C@@H]4CC[C@@]3(C)[C@]1(C)CC2 (some centres undefined) and answer again.
Out: 18.7 µM

In: Now consider Cc1cccc(NC(=O)CCl)c1 and answer again.
Out: > 10 µM

In: Now consider CC(=O)Nc1ccccc1-c1cnc2ccccc2n1 and answer again.
Out: > 100 µM

In: Now consider CCCNC(C#N)c1ccc(OCCCCCCCCCCOc2ccc(C(C#N)NCCC)cc2)cc1 (centres undefined) and answer again.
Out: > 100 µM

In: Now consider CN1C(=O)[C@@H]2N(CSC2(C)C)C1=S and answer again.
Out: > 100 µM

In: Now consider C/C1=C\[C@H](C)C[C@H](C)OC(=O)C[C@H](c2ccc(O)cc2)NC(=O)[C@H](Cc2ccc(O)c(Br)c2)N(C)C(=O)[C@H](C)NC(=O)[C@@H](C)C1 and answer again.
Out: > 25 µM

In: Now consider O=C(Nc1nc2ccccc2n1Cc1ccc(Cl)cc1)NC12CC3CC(CC(C3)C1)C2 and answer again.
Out: 64 µM

In: Now consider O=C(NC(=S)NNC(=S)NNc1ccccc1)c1ccccc1 and answer again.
Out: > 100 µM
